Experiment: chemical genetic growth profiling, strain panel (AID 1159580);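 also: tested at 20 µM; growth read once vehicle control cultures reached saturation at 30 °C; 1 = growth at the plate median or of vehicle wells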
Details: S. cerevisiae deletion strains, growth OD, locus YOR231W, strain MKK1, stronger effect = lower value
Among all 5,500 compounds or so, about 2,000 (36%) were called active. Roughly 18% stayed inconclusive and do not appear here. Some of the results follow.
readout.label: normalized growth
Numbers only.

# molecule, normalized growth
measured = [
    ("COc1cc2c(cc1OC)C(=O)C(CC1CCN(Cc3ccccc3)CC1)C2 (configuration not stated)", 0.977),
    ("C[C@@H](N)CO", 0.974),
    ("NC[C@@H]1O[C@H](O[C@@H]2[C@@H](CO)OC(O[C@@H]3[C@@H](O)[C@H](N)C[C@H](N)[C@H]3OC3O[C@H](CN)[C@@H](O)[C@H](O)[C@H]3N)[C@@H]2O)[C@H](N)[C@@H](O)[C@@H]1O (some centres not stated)", 1.01),
    ("Cc1ccc(O)cc1", 0.993),
]

I'm hoping you can list normalized growth for every molecule here, please.
1. C1CCc2nnnn2CC1
2. O=c1ccc2cc(O)c(O)cc2o1
3. CCC1(c2ccccc2)C(=O)NCNC1=O
4. COc1ccc2cc1Oc1ccc(cc1)C[C@H]1c3cc(c(OC)cc3CCN1C)Oc1c(OC)c(OC)cc3c1[C@H](C2)N(C)CC3
5. CCC1(C)CC(=O)NC1=O (configuration not stated)
6. CCc1nc(N)nc(N)c1-c1ccc(Cl)cc1
7. Cc1cc(SCc2[nH]nc3oc(=O)cc(C)c23)c(Cl)cc1Cl

Out:
[0.982, 0.98, 1, 0.974, 0.977, 1.02, 0.985]

I'm hoping you can list normalized growth for every molecule here, please.
1. COC(=O)COc1cc(Cl)c(Cl)cc1Cl
2. OCCN(CCO)c1nc(N2CCCCC2)c2nc(N(CCO)CCO)nc(N3CCCCC3)c2n1
3. CCC(C(=O)O)c1ccccc1 (configuration not stated)
4. COc1ccc2cc1Oc1ccc(cc1)C[C@H]1c3c(cc4c(c3Oc3cc5c(cc3OC)CCN(C)[C@@H]5C2)OCO4)CCN1C
5. CC(C)CC(NC(=O)CCN)C(=O)O (configuration not stated)

Out:
0.86
1.02
0.951
1.06
0.993

In: Can you look up the measured normalized growth of Oc1ccc(O)cc1 for me?
Out: 1.06

====

Assay: chemical genetic growth profiling, strain panel (AID 1159580)
Conditions: S. cerevisiae deletion strains, growth OD, locus YDL192W, strain arf1
The whole screen tested about 5,500 compounds, of which about 2,000 (36%) were called active. Inconclusive results (about 18%) are left out. No stated cut-off is given here; in the data, active means normalized growth mostly below about 0.91 (no sharp cut-off); inconclusive means no clear call, values can overlap the other calls; inactive means mostly above about 0.92. The list shows a part of the results.
Mark one answer only. Choices: y (active), n (inactive)

Example entries begin here.
# compound, qualitative.label
data = [
    ("Cc1ccc2c(c1)CC[C@H]1CC(=O)CC[C@]21C", "n"),
    ("Nc1nc2[nH]c(=O)c(=O)[nH]c2c(=O)[nH]1", "n"),
]

In: // return assay outcome for CCCCCC(=O)O[C@]1(C(C)=O)CCC2C3CCC4=CC(=O)CC[C@]4(C)C3CC[C@@]21C (stereo partly drawn)
Out: n

In: // return assay outcome for CC1(C)C2CC[C@]3(C)C(C(=O)C=C4[C@@H]5C[C@@](C)(C(=O)O)CC[C@]5(C)CC[C@]43C)[C@@]2(C)CC[C@@H]1O (stereo partly drawn)
Out: n

In: // return assay outcome for CC1(O)/C=C/C=C(\CO)C2CC(C)(C)C2(O)CC1 (stereo not drawn)
Out: n

In: // return assay outcome for CN1CCc2cc3c(cc2C1O)OCO3 (stereo not drawn)
Out: n

In: // return assay outcome for NC(N)=NOCC[C@H](N)C(=O)O
Out: n

In: // return assay outcome for O=C(O)C1CC([C@@H]2CCCCN2)CN2CCCCC12 (stereo partly drawn)
Out: n

In: // return assay outcome for COc1c2c(c(CC=C(C)C)c3oc(=O)c(-c4ccc(O)cc4)c(O)c13)OC(C)(C)C=C2
Out: y

In: // return assay outcome for O=c1ccc2ccccc2o1
Out: n

In: // return assay outcome for CN1C2CC3C[C@H]1C(O3)C2O (stereo partly drawn)
Out: n

In: // return assay outcome for C[C@@H]1O[C@@H](O[C@H]2[C@@H](Oc3cc(O)c4c(c3)O[C@H](c3ccc(O)cc3)CC4=O)O[C@H](CO)[C@@H](O)[C@@H]2O)[C@H](O)[C@H](O)[C@H]1O
Out: n

In: // return assay outcome for COc1c(CC=C(C)C)c2c(c3oc(=O)c(-c4ccc(OC(C)=O)cc4)c(OC(C)=O)c13)C=CC(C)(C)O2
Out: n

In: // return assay outcome for CC(C)[N+](C)(CCOC(=O)C1c2ccccc2Oc2ccccc21)C(C)C
Out: n

In: // return assay outcome for COc1cc(OC)c2c(c1)OC(c1ccccc1)CC2=O (stereo not drawn)
Out: n

In: // return assay outcome for COc1ccc([C@@H]2CC(=O)c3c(O)cc(O)cc3O2)cc1O
Out: n

In: // return assay outcome for NC/C=C/C(=O)O
Out: n

In: // return assay outcome for COc1ccc(C[C@H]2NC[C@H](O)[C@H]2OC(C)=O)cc1
Out: y

====

Provide the recorded normalized growth for the entries that follow.
Experiment: chemical genetic growth profiling, strain panel (AID 1159580);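 also: tested at 20 µM; growth read once vehicle control cultures reached saturation at 30 °C; 1 = growth at the plate median or of vehicle wells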
Conditions: S. cerevisiae deletion strains, growth OD, locus YAL013W, strain DEP1, stronger effect = lower value
In all, about 5,500 compounds went through this assay and about 2,000 (36%) were called active. About 18% were inconclusive and are not listed. The list shows a part of the results.
Answers are plain numbers.

// known answers, use as guide
# molecule, normalized growth
measured = [
    ("S=C=NCc1ccccc1", 0.0579),
    ("CCCCOc1ccc(C(=O)CCN2CCCCC2)cc1", 0.807),
]

I'm hoping you can list normalized growth for every molecule here, please.
1. COc1c2c(c(CC=C(C)C)c3oc(=O)c(-c4ccc(O)cc4)c(O)c13)OC(C)(C)C=C2
2. CCCCOc1cc(C(=O)O)ccc1OC
3. CN(C)/C=C(\C#N)C(=O)Nc1ccc(F)c(Cl)c1
4. COc1ccc(C(=O)c2ccccc2)c(O)c1

Out:
1. 0.307
2. 0.97
3. 0.971
4. 0.914

I'm hoping you can list normalized growth for every molecule here, please.
1. CCCC[N+]1(C)C2CC(OC(=O)[C@H](CO)c3ccccc3)CC1C1OC12 (stereo partly drawn)
2. CN1Cc2c(ccc3c2OCO3)C2C(O)Cc3cc4c(cc3C21)OCO4 (stereo not drawn)

Out:
[1, 0.992]

====

Provide the recorded normalized growth for the entries that follow.
Assay: chemical genetic growth profiling, strain panel (AID 1159580);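 also: tested at 20 µM; growth read once vehicle control cultures reached saturation at 30 °C; 1 = growth at the plate median or of vehicle wells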
Conditions: S. cerevisiae deletion strains, growth OD, locus YOR290C, strain snf2, stronger effect = lower value
Screen size: about 5,500 compounds; about 2,000 (36%) were called active. Another 18% or so got no clear call; they are omitted. The list shows a part of the results.

// known answers, use as guide
# molecule, reported.measurement
measured = [
    ("CCOC(=O)c1ncn2c1CN(C)C(=O)c1cc(F)ccc1-2", "1.01 (inactive)"),
    ("NC(N)=NOCC[C@H](N)C(=O)O", "1.02 (inactive)"),
    ("C[N+](C)(C)CC(=O)[O-]", "1 (inactive)"),
    ("C[N+](C)(C)CCOP(=O)([O-])OP(=O)(O)OC[C@H]1OC(n2ccc(N)nc2=O)[C@H](O)[C@@H]1O (stereo not given in full)", "1.01 (inactive)"),
]

In: Can you look up the measured normalized growth of O=C1CC(c2ccc(O)c(O)c2)Oc2cc(O)cc(O)c21 (stereo not given) for me?
Out: 0.995 (inactive)

====

Assay: chemical genetic growth profiling, strain panel (AID 1159580);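 also: tested at 20 µM; growth read once vehicle control cultures reached saturation at 30 °C; 1 = growth at the plate median or of vehicle wells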
Conditions: S. cerevisiae deletion strains, growth OD, locus YDL035C, strain GPR1, stronger effect = lower value
Hit rate of the full screen: of about 5,500 compounds, about 2,000 (36%) were called active. Roughly 18% stayed inconclusive and do not appear here. Some of the results follow.
readout.label: normalized growth
Answers are plain numbers.

// known answers, use as guide
# molecule, normalized growth
rows = [
    ("Cc1ccc(C(=O)C(C)CN2CCCCC2)cc1 (stereo not drawn)", 1.01),
    ("CC(C)=CCc1c(O)cc(C)oc1=O", 1.11),
    ("COc1ccc(-c2coc3c(OC)c(O)ccc3c2=O)cc1", 0.935),
    ("C=CCc1ccc2c(c1)OCO2", 1.03),
    ("O=C1CC(c2ccc(O)cc2)Oc2ccccc21 (stereo not drawn)", 0.844),
    ("COc1cc(O)c2c(=O)cc(C)oc2c1CC=C(C)C", 0.805),
    ("NC/C=C/C(=O)O", 1.04),
    ("Cc1cc(=O)c2c(O)c(C)c(O)cc2o1", 0.978),
]

I'm hoping you can list normalized growth for every molecule here, please.
1. C=CC1=C(C(=O)O)N2C(=O)[C@@H](NC(=O)/C(=N/O)c3csc(N)n3)[C@H]2SC1
2. COC1C(O)C(O)C(O)[C@@H](O)C1O (stereo partly drawn)
3. COc1ccc(-c2coc3c(OC)c(OC)cc(O)c3c2=O)cc1
4. O=C(/C=C/C=C/c1ccc2c(c1)OCO2)N1CCCCC1
5. CNc1ccccc1C(=O)N1CCc2c([nH]c3ccccc23)C1=O
6. COC(=O)C1[C@H]2C[C@H]3c4[nH]c5ccccc5c4CCN3C[C@@H]2CC[C@@H]1O (stereo partly drawn)
7. CC(C)=CCc1c(O)cc2oc(C)cc(=O)c2c1O

Out:
1: 1.03; 2: 1.02; 3: 0.981; 4: 0.922; 5: 0.995; 6: 1.02; 7: 0.912
